Reference for the values: patent US10059689B2

Readings of log10 of CLint scaled for the listed molecules
experiment: Compound stability in human liver microsomes; type: in vitro ADME; conditions: pH 7.4, in vivo CLint extrapolated
assayMetric: log10 of CLint scaled (log10 of the value in mL/min/kg)

• Cc1cc(Nc2ncc(Cl)c(N(C)C3CCN(c4ccc(C#N)cn4)CC3)n2)nn1C = 1.99
• Cc1cc(Nc2ncc(Cl)c(NC3CCN(c4ccc(C#N)nn4)CC3)n2)nn1C = 1.41
• CCC1CN(c2ccc(C#N)nn2)CCC1N(C)c1nc(Nc2ccc3c(C)n(C)nc3c2)ncc1Cl (stereo not drawn) = 2.22
• Cc1nn(C)cc1Nc1ncc(Cl)c(N(C)C2CCN(c3ccc(C#N)cn3)CC2)n1 = 2.34
• Cc1cc(Nc2ncc(Cl)c(NC3CCN(c4ccc(C#N)cn4)CC3)n2)n[nH]1 = 1.03
• Cn1cc(Nc2ncc(Cl)c(NC3CCN(c4ccc(C#N)cn4)CC3)n2)cn1 = 1.63
• CCC1CN(c2ccc(C#N)cn2)CCC1Nc1nc(Nc2ccc3c(C)n(C)nc3c2)ncc1Cl (stereo not drawn) = 2.05
• CCC1CN(c2ccc(C#N)cn2)CCC1N(C)c1nc(Nc2ccc3c(C)n(C)nc3c2)ncc1Cl (stereo not drawn) = 1.83
• CCC1CN(c2ccc(C#N)nn2)CCC1Nc1nc(Nc2ccc3c(C)n(C)nc3c2)ncc1Cl (stereo not drawn) = 2.19
• Cc1nn(C)cc1Nc1ncc(Cl)c(NC2CCN(c3ccc(C#N)nn3)CC2)n1 = 2.12
• CCC1CN(c2ccc(C#N)cn2)CCC1Nc1nc(Nc2cn(C)nc2C)ncc1Cl (stereo not drawn) = 2.65
• Cc1c2ccc(Nc3ncc(Cl)c(NC4CCN(c5ccc(C#N)nn5)CC4)n3)cc2nn1C = 1.84

====

assay: Pharmacokinetics after intravenous and oral administration in rats; format: in vivo; conditions: rat, plasma, iv dosing, 1 mg/kg
The following molecules are shown together with reported half-life values.
assayMetric: half-life (min)

* Cn1cc(Nc2ncc(Cl)c(NC3CCN(c4ccc(C#N)cn4)CC3)n2)cn1 | 58.8
* CN(c1nc(Nc2cnn(C)c2)ncc1Cl)C1CCN(c2ccc(C#N)cn2)CC1 | 30.6
* CCC1CN(c2ccc(C#N)cn2)CCC1Nc1nc(Nc2cn(C)nc2C)ncc1Cl (stereo not drawn) | 39.6
* CCC1CN(c2ccc(C#N)nn2)CCC1N(C)c1nc(Nc2ccc3c(C)n(C)nc3c2)ncc1Cl (stereo not drawn) | 27
* CN(c1nc(Nc2cnn(C)c2)ncc1Cl)C1CCN(c2ccc(C#N)cn2)C1 (stereo not drawn) | 20.4
* Cc1cnc(Nc2cnn(C)c2)nc1N(C)C1CCN(c2ccc(C#N)cn2)CC1 | 35.9
